Reference source: patent US20050222383A1

- target.desc: prostasin (Homo sapiens)
- Construct: eliminate the N-terminal signal peptide domain and light chain and the C-terminal GPI signal domain; honeybee melittin signal peptide (21 aa) (N); made in house; host or cells: Sf9 insect cells, baculovirus (Bac-to-Bac, pFastBac1)
- Sequence (Q16651 45-322 limits assumed): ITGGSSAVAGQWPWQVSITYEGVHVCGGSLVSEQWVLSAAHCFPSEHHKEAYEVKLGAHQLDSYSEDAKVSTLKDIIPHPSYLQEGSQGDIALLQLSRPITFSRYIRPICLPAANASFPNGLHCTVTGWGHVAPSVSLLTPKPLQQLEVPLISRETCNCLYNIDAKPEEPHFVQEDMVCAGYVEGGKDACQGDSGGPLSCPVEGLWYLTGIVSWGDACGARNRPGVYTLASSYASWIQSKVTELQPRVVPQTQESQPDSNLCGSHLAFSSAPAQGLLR
- test.protocol: Cation/anion inhibition of prostasin activity against Ac-KHYR-acc
- Assay type: biochemical
- run.parameters: Ac-KHYR-acc substrate, CHES-CHAPS buffer, 37° C.; read-out: Inhibition constants
The label is Criterion met for Ki below 4 mM and Criterion not met for Ki equal to or exceeding 4 mM.

Use the examples below as a reference point.
compound	target.desc	answer.label
[I-].[Na+] [NaI]	prostasin (Homo sapiens)	Criterion not met
[Cl-].[K+] [KCl]	prostasin (Homo sapiens)	Criterion not met
[Cl-].[Cl-].[Mg+2] [MgCl2]	prostasin (Homo sapiens)	Criterion met
[Cl-].[Li+] [LiCl]	prostasin (Homo sapiens)	Criterion met

For [Ca+2].[Cl-].[Cl-] [CaCl2] , is the recorded Ki below the cut-off of 4 mM?
Criterion met

Now the same for [F-].[Na+] [NaF]
Criterion not met

###

- target.desc: prostasin (Homo sapiens)
- Construct: eliminate the N-terminal signal peptide domain and light chain and the C-terminal GPI signal domain; honeybee melittin signal peptide (21 aa) (N); made in house; host or cells: Sf9 insect cells, baculovirus (Bac-to-Bac, pFastBac1)
- test.protocol: Cation/anion inhibition of prostasin activity against Ac-KHYR-acc
- Assay type: biochemical
- run.parameters: read-out: Inhibition constants
readout.label: Ki
Note: a bare number is incomplete; add the unit.

molecule	target.desc	reading
[Cl-].[Cl-].[Co+2] [CoCl2]	prostasin (Homo sapiens)	0.005 mM

# get_value(readout='Ki', item= [Cl-].[Na+] [NaCl] )
5.3 mM
